Origin of the recorded values: paper PMC6556873

# testSystem: OTUB2 (OTUB2A) (Homo sapiens, UniProt Q96DC9)
# Construct: full length residues 1-234, E. coli BL21(DE3)-R3, His tag removed by TEV, construct 27312 Da
# Sequence (Q96DC9 whole entry, the tested form may be a part): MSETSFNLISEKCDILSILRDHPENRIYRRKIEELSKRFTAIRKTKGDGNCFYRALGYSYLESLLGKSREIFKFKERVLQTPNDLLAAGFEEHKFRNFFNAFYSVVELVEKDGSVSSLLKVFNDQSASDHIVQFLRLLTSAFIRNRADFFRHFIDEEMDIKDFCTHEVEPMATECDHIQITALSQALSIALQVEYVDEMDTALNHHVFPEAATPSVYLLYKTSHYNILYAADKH
# Design: Intact protein LC/MS covalent labelling, fragments in pools of five, 200 uM each, 4 °C
# conditions: 24 h, 4 °C, pool of five; 200 µM; covalent
metric: OTUB2
Give your answer as a number; write no unit.

Some solved cases for reference:
Cc1nnc(NC(=O)CCl)o1 [PCM-0102147] | 0
Cl.O=C(CCl)N1CCN(c2cccc(Cl)c2)CC1 [PCM-0103032] | 0.21
O=C(CCl)NCC1CCOC1 (stereo not shown) [PCM-0102596] | 0.13
Cc1nc(NC(=O)CCl)c(Cl)cc1Cl [PCM-0102206] | 0
CN(CC(=O)N1CCOCC1)C(=O)CCl [PCM-0102743] | 0

Fill blank: measured OTUB2 of the compound CCN(C(=O)CCl)C1CCS(=O)(=O)C1 (stereo not shown) [PCM-0102105] is ____. 0

Same question for Cc1nc(-c2ccc3c(c2)CCN3C(=O)CCl)cs1 [PCM-0102901] please. 0

Same question for C=CC(=O)N1CCn2nc(C)nc2C1 [PCM-0102605] please. 0

Same question for C=CC(=O)N1CCN(C(=O)OCC(C)C)CC1 [PCM-0102449] please. 0

Same question for C=CC(=O)Nc1ccc(OC)cc1 [PCM-0103034] please. 0

Same question for C=CC(=O)N1CCC(Oc2cnc3ccccc3n2)CC1 [PCM-0102925] please. 0

Same question for CC(NC(=O)CCl)C(=O)N(C)C (stereo not shown) [PCM-0102754] please. 0

Same question for CN(Cc1cccc(F)c1)C(=O)CCl [PCM-0102747] please. 0

Same question for C=CC(=O)N(C)Cc1c(C)nc2sc(C)cn12 [PCM-0102679] please. 0

Same question for COc1ccccc1NC(=O)CCl [PCM-0102236] please. 0.28

Same question for Cc1ccc(S(C)(=O)=O)cc1NC(=O)CCl [PCM-0102858] please. 0

Same question for CC(C)N(C(=O)CCl)C1CCCC1 [PCM-0102948] please. 0

Same question for N#Cc1ccc(CNC(=O)CCl)cc1 [PCM-0102946] please. 0.35
